Would you kindly list abundance fitness for each of these variants?
B1: Transcription elongation factor A N-terminal and central domain-containing protein, residues 30 to 77; numbered along this chain, Q8N8B7 (parent)
chain: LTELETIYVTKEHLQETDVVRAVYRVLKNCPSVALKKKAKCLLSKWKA

Variants of: B1
Experiment: abundance fitness (aPCA) (normalised: wild type 0, dead -1); higher = more abundant; growth selection in yeast, the domain comes from the species named
Conditions: Homo sapiens
Lab note: jot down the number only; don't add units.

Given the variant `T2C` , what is its reported abundance fitness?
-0.501

# abundance fitness lookup, item `N29S`
-0.144

# abundance fitness lookup, item `L4Y`
-0.325

Suppose we examine the variant `P31E` ; what abundance fitness value has been reported?
-0.357

Item `A22R` has what recorded abundance fitness?
0.277

Reported abundance fitness, variant `K47T` : ____
-0.351

Need abundance fitness, item `S32T`
-0.022

Entry `V9F` : reported abundance fitness = ?
0.045

I am curious: what abundance fitness value has been reported for `T2P` ?
-0.629

If you can, please state the reported abundance fitness value of `E5T` .
-1.17

Please look up its abundance fitness: `C30P`
-0.244
